// reported kon for each item listed
- Study System: T1, full length recombinant human 2N4R tau (amino acids 1-441) (human, UniProt P10636 1-758)
- T1 construct: Bought (rPeptide); recombinant, non-phosphorylated; also called recombinant tau
- T1 sequence (P10636 other isoform, or with tags, fused parts or gaps limits assumed): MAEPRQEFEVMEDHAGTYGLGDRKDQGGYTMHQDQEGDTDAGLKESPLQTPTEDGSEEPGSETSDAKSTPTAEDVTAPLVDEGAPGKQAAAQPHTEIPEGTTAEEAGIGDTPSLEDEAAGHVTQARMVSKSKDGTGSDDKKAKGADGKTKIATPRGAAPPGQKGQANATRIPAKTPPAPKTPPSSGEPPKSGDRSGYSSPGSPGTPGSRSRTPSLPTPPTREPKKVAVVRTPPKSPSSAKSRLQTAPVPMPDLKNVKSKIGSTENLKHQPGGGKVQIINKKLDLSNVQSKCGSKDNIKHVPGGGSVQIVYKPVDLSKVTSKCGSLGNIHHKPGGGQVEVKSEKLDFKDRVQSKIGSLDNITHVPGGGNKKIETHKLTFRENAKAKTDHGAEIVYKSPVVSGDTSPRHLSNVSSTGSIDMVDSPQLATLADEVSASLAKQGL
- Measurement Protocol: SPR Biacore SCK, IgG on Protein A, tau analyte

| Binder | U | kon |
| --- | --- | --- |
| Clone 27 (VH4Vκ2), humanised variant of clone #28, human IgG1 (antibody, V domains shown, also called VH4VK2; VH4Vk2) VH: QVQLQESGPGLVKPSETLSLTCTVSGFSLNNYDMSWVRQAPGKGLEWIGTVSTTYRRYYASWAKGRFTISKDTSSTTVDLQMTSLTAEDTATYFCAASGIWGRGTLVTVSS VL: AQVLTQSPSTLSASVGDRVTITCQSSQRVYSNYLAWYQQKPGQPPKRLIFLASTLESGVPSRFSGSGSGTEFTLTISSLQPDDFATYYCAGTYTGSIWAFGGGTKVEIK | M⁻¹ s⁻¹ | 44800 |
| Clone 25 (VH3Vκ5), humanised variant of clone #28, human IgG1 (antibody, V domains shown, also called VH3VK5) VH: QVQLQESGPGLVKPSETLSLTCTVSGFSLNNYDMSWVRQAPGKGLEWIGTVSTTYRRYYASWAKGRFTISKTSSTTVDLQMTSLTAEDTATYFCAASGIWGRGTLVTVSS VL: DIQMTQSPSTLSASVGDRVTITCQSSQRVSSSYLAWYQQKPGQPPKRLIFLASTLESGVPSRFSGSGSGTEFTLTISSLQPDDFATYYCAGTYTGSIWAFGGGTKVEIK | M⁻¹ s⁻¹ | 81300 |
| Clone #28 VH0VK0 chimeric human IgG1 (rabbit VH and VK of Clone 1) (antibody, V domains shown, also called VH0Vκ0; #28 VH0κ0) VH: QSLEESGGGLVKPGGTLTLTCTVSGFSLNNYDMSWVRQAPGKGLEWIGTVSTTYRRYYASWAKGRFTISKTSSTTVDLKMTSLTTEDTATYFCAASGIWGPGTLVTVSL VL: AQVLTQTTSPVSAAVGGTVTINCQSSQRVYSNYLAWYQQKPGQPPKRLIFLASTLESGVPSRFSGSGSGTQFTLTISDLECDDAATYYCAGTYTGSIWAFGGGTEVVVK | M⁻¹ s⁻¹ | 75400 |
| Clone 33 (VH5Vκ5), humanised variant of clone #28, human IgG1 (antibody, V domains shown, also called VH5VK5) VH: QVQLQESGPGLVKPSETLSLTCTVSGFSLNNYDMSWVRQAPGKGLEWIGTVSTTYRRYYASWAKGRFTISRDNSKNTLDLQMTSLTAEDTATYFCAASGIWGRGTLVTVSS VL: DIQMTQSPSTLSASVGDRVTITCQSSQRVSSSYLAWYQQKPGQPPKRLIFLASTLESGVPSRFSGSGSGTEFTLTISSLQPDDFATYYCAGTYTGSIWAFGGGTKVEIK | M⁻¹ s⁻¹ | 58400 |
